Test: in vivo
Conditions: mouse, ip
Measured Quantity: MTD at 336 h

For the molecule shown here, COc1cccc2c1C(=O)c1c(O)c3c(c(O)c1C2=O)C[C@@](O)(C(C)=O)C[C@@H]3O[C@H]1C[C@H](N)[C@H](O)[C@H](C)O1 [Free daunorubicin, daunorubicin] , give the reported MTD at 336 h.
5 mg/kg

* * *

Experiment: Solution stability in PBS (dissolved daunorubicin monitored by fluorescence)
Format: physicochemical
Settings: 27 hours incubation, 37°, PBS pH 7.0, 0.2 μM; read-out: I585 (% of initial)
Measured Quantity: remaining at 27 h, 0.2 µM (%)
Write it as a number; the unit % goes unstated.

For the compound shown here, COc1cccc2c1C(=O)c1c(O)c3c(c(O)c1C2=O)C[C@@](O)(C(C)=O)C[C@@H]3O[C@H]1C[C@H](N)[C@H](O)[C@H](C)O1 [Free daunorubicin, daunorubicin] , give the reported remaining at 27 h, 0.2 µM.
89

* * *

Experiment: in vivo
Details: mouse, ip
Measured Quantity: LD50 at 336 h (mg/kg)
Write it as a number; the unit mg/kg goes unstated.

For the compound shown here, COc1cccc2c1C(=O)c1c(O)c3c(c(O)c1C2=O)C[C@@](O)(C(C)=O)C[C@@H]3O[C@H]1C[C@H](N)[C@H](O)[C@H](C)O1 [Free daunorubicin, daunorubicin] , give the reported LD50 at 336 h.
7

* * *

Assay: Solution stability in PBS (dissolved daunorubicin monitored by fluorescence)
Format: physicochemical
Conditions: 6 hours incubation, 37°, PBS pH 7.0, 0.2 μM; read-out: I585 (% of initial)
Measured Quantity: remaining at 6 h, 0.2 µM (%)
Write it as a number; the unit % goes unstated.

For the compound shown here, COc1cccc2c1C(=O)c1c(O)c3c(c(O)c1C2=O)C[C@@](O)(C(C)=O)C[C@@H]3O[C@H]1C[C@H](N)[C@H](O)[C@H](C)O1 [Free daunorubicin, daunorubicin] , give the reported remaining at 6 h, 0.2 µM.
92

* * *

Test: Solution stability in PBS (dissolved daunorubicin monitored by fluorescence)
Format: physicochemical
Conditions: 78 hours incubation, 37°, PBS pH 7.0, 0.2 μM; read-out: I585 (% of initial)
Measured Quantity: remaining at 78 h, 0.2 µM (%)
Write it as a number; the unit % goes unstated.

For the compound shown here, COc1cccc2c1C(=O)c1c(O)c3c(c(O)c1C2=O)C[C@@](O)(C(C)=O)C[C@@H]3O[C@H]1C[C@H](N)[C@H](O)[C@H](C)O1 [Free daunorubicin, daunorubicin] , give the reported remaining at 78 h, 0.2 µM.
54
